Examples of compounds with documented IC50 follow.
- Assayed System: Potassium voltage-gated channel subfamily A member 3 (Homo sapiens, UniProt P22001)
- Sequence (P22001 whole entry): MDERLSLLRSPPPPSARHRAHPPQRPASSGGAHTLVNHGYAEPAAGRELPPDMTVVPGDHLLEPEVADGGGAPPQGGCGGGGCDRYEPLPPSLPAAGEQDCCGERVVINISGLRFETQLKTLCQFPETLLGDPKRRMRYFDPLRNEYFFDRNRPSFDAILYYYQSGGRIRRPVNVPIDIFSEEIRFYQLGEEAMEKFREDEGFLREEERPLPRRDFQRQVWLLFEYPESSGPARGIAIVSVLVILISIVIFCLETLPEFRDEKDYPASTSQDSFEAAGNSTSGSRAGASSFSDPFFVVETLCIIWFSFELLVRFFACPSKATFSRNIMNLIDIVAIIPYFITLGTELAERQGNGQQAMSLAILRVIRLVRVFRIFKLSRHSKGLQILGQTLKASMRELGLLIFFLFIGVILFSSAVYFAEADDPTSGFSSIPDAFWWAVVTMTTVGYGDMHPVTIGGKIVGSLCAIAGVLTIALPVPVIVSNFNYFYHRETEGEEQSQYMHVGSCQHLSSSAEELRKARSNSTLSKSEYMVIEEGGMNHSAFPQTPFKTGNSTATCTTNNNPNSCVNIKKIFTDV
- Method Description: Inhibition of [86Rb+] efflux from CHO cells stably transfected with Kv1.3 channel
- Assay type: functional, cell-based
Reported Endpoint: IC50 (nM)

- CNC(=O)O[C@H]1CC[C@@](CNC(=O)c2ccccc2OC)(c2ccccc2)CC1: 58
- C=CCNC(=O)O[C@H]1CC[C@@](CNC(=O)c2ccccc2OC)(c2ccccc2)CC1: 70
- CNC(=O)O[C@H]1CC[C@](CNC(=O)c2ccccc2OC)(c2ccccc2)CC1: 150
- CCCNC(=O)O[C@H]1CC[C@](CNC(=O)c2ccccc2OC)(c2ccccc2)CC1: 100

The reported numbers originate from ChEMBL document CHEMBL1136659.
